The reported numbers originate from ChEMBL document CHEMBL3784929.

experiment: Fraction unbound in healthy human (6 volunteers) serum at 1 g, po administered as single dose measured after 0.66 hrs; format: ADME, organism-based

>  <COMPOUND>
CCCC(CCC)C(=O)[O-].[Na+] [VALPROATE SODIUM]

>  <fraction unbound at 0.66 h>
0.052

$$$$

====

assay: Total serum concentration in healthy human (6 volunteers) at 1 g, po administered as single dose measured after 14 hrs by gas liquid chromatography; assay type: ADME, organism-based; conditions: read-out: Drug uptake

>  <MOLECULE>
CCCC(CCC)C(=O)[O-].[Na+] [VALPROATE SODIUM]

>  <concentration at 14 h>
47500 ng/mL

$$$$

====

assay: Fraction unbound in healthy human (6 volunteers) serum at 1 g, po administered as single dose measured after 14 hrs; format: ADME, organism-based

>  <COMPOUND>
CCCC(CCC)C(=O)[O-].[Na+] [VALPROATE SODIUM]

>  <fraction unbound at 14 h>
0.026

$$$$

====

assay: Terminal half life in healthy human (6 volunteers) at 1 g, po administered as single dose by gas liquid chromatography; format: ADME, organism-based; conditions: in vivo, read-out: beta t1/2 (converted)
PARAMETER MEASURED: half-life (h)

>  <COMPOUND>
CCCC(CCC)C(=O)[O-].[Na+] [VALPROATE SODIUM]

>  <ENDPOINT RESULT>
14.9

$$$$

====

assay: Fraction unbound in healthy human (6 volunteers) serum at 1 g, po administered as single dose measured after 1.5 hrs; assay type: ADME, organism-based
PARAMETER MEASURED: fraction unbound at 1.5 h

>  <MOLECULE>
CCCC(CCC)C(=O)[O-].[Na+] [VALPROATE SODIUM]

>  <PARAMETER MEASURED>
fraction unbound at 1.5 h

>  <ENDPOINT RESULT>
0.042

$$$$

====

assay: Fraction unbound in healthy human (6 volunteers) serum at 1 g, po administered as single dose measured after 0.33 hrs; format: ADME, organism-based

>  <COMPOUND>
CCCC(CCC)C(=O)[O-].[Na+] [VALPROATE SODIUM]

>  <fraction unbound at 0.33 h>
0.04

$$$$

====

assay: Fraction unbound in healthy human (6 volunteers) serum at 1 g, po administered as single dose measured after 1 hr; assay type: ADME, organism-based

>  <COMPOUND>
CCCC(CCC)C(=O)[O-].[Na+] [VALPROATE SODIUM]

>  <fraction unbound at 1 h>
0.051

$$$$

====

assay: Total serum concentration in healthy human (6 volunteers) at 1 g, po administered as single dose measured after 3 hrs by gas liquid chromatography; type: ADME, organism-based; details: read-out: Drug uptake

>  <MOLECULE>
CCCC(CCC)C(=O)[O-].[Na+] [VALPROATE SODIUM]

>  <concentration at 3 h>
96.3 µg/mL

$$$$

====

test: Total serum concentration in healthy human (6 volunteers) at 1 g, po administered as single dose measured after 30 hrs by gas liquid chromatography; type: ADME, organism-based; details: read-out: Drug uptake

>  <COMPOUND>
CCCC(CCC)C(=O)[O-].[Na+] [VALPROATE SODIUM]

>  <UNIT INFO>
ng/mL

>  <concentration at 30 h>
23400

$$$$
